# target entity: Alpha 2A (Homo sapiens, UniProt P08913)
# Sequence (P08913 whole entry): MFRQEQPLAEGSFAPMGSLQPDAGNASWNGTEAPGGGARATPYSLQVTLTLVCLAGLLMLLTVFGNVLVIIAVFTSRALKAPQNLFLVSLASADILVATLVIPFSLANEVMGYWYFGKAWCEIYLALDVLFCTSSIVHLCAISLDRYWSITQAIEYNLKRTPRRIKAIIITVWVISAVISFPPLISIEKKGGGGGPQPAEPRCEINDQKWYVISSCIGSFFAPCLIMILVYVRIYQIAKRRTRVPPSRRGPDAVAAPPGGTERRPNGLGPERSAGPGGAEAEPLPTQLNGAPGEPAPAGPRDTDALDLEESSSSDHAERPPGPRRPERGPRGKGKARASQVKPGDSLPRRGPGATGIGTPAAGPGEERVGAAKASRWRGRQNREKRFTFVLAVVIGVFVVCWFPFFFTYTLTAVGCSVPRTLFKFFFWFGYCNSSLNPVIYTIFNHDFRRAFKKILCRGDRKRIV
# experiment description: FLIPR assay, intracellular Ca2+ mobilization, alpha 2A
# test context: agonist, read-out: Alpha 2A Potency (EC50)
observation type: pEC50
// returns pEC50 (minus log10 of molar concentration), number only

For Cc1cccc2c1CC[C@@H]2NC1=NCCC1 the molecule record lists pEC50 as 6.57

For Cc1c(NC2=NCCC2)ccc2[nH]cnc12 the molecule record lists pEC50 as 6.69

For c1cc2cc(/N=C3\CCCN3)cnc2[nH]1 the molecule record lists pEC50 as 6.93

For Clc1c(NC2=NCCC2)ccc2cccnc12 the molecule record lists pEC50 as 6.37

For c1cc(NC2=NCCC2)c2cc[nH]c2c1 the molecule record lists pEC50 as 6.94

For Brc1c(NC2=NCCC2)ccc2scnc12 the molecule record lists pEC50 as 7.02

----------
# target entity: Alpha 2B (Homo sapiens)
# Sequence (P18089 whole entry): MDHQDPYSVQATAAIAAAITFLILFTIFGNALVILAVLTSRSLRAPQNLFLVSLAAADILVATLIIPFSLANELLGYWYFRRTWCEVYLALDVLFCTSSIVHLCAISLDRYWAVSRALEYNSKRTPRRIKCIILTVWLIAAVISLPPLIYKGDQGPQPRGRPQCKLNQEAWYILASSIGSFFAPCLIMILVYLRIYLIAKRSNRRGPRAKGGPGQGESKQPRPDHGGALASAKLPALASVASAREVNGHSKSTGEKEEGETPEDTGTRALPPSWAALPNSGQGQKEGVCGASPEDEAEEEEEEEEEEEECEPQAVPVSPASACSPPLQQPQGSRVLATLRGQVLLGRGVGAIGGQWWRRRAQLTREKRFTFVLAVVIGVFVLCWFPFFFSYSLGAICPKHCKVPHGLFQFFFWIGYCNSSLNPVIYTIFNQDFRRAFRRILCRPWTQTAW
# experiment description: FLIPR assay, intracellular Ca2+ mobilization, alpha 2B
# Type: cell-based
# test context: FLIPR, agonist; read-out: Alpha 2B Potency (EC50)
pEC50: −log10 of the molar value.
Fulfilled means recorded pEC50 is 7 or above; Not fulfilled means it is below 7.

Exam item: # check: pEC50 of Cc1cccc2c1CC[C@@H]2NC1=NCCC1 [Compound 37] is greater than or equal to 7
Marked response: Fulfilled

Exam item: # check: pEC50 of c1cc2cc(/N=C3\CCCN3)cnc2[nH]1 [Compound 26] is greater than or equal to 7
Marked response: Fulfilled

Exam item: # check: pEC50 of Clc1cc(NC2=NCCC2)cc2nc[nH]c12 [Compound 13] is greater than or equal to 7
Marked response: Not fulfilled

Exam item: # check: pEC50 of Brc1c(NC2=NCCC2)ccc2nccnc12 [Compound 8] is greater than or equal to 7
Marked response: Not fulfilled

----------
# target entity: Alpha 2B (Homo sapiens)
# experiment description: FLIPR assay, intracellular Ca2+ mobilization, alpha 2B
# Type: cell-based
# test context: FLIPR, agonist; read-out: Alpha 2B Potency (EC50)
observation type: pEC50
// returns pEC50 (minus log10 of molar concentration), number only

For Cc1ccc2ccccc2c1NC1=NCCC1 [Compound 2] the compound record lists pEC50 as 6.84

For Brc1c(NC2=NCCC2)ccc2[nH]cnc12 [Compound 10] the compound record lists pEC50 as 7.05

For Brc1cc(NC2=NCCC2)cc2cc[nH]c12 [Compound 20] the compound record lists pEC50 as 7.10

For c1cc(NC2=NCCC2)c2cc[nH]c2c1 [Compound 25] the compound record lists pEC50 as 6.82

For Cc1c(NC2=NCCC2)ccc2cccnc12 [Compound 29] the compound record lists pEC50 as 7.10
